molecular target: UniProtKB Q15678; assay: PTPN14 phosphatase inhibitors, biochemical, human, DiFMUP fluorescence (AID 402); conditions: recombinant PTPN14, DiFMUP fluorescence phosphatase assay; at 50 µM; stronger effect = higher value
Sequence (Q15678 whole entry, looked up): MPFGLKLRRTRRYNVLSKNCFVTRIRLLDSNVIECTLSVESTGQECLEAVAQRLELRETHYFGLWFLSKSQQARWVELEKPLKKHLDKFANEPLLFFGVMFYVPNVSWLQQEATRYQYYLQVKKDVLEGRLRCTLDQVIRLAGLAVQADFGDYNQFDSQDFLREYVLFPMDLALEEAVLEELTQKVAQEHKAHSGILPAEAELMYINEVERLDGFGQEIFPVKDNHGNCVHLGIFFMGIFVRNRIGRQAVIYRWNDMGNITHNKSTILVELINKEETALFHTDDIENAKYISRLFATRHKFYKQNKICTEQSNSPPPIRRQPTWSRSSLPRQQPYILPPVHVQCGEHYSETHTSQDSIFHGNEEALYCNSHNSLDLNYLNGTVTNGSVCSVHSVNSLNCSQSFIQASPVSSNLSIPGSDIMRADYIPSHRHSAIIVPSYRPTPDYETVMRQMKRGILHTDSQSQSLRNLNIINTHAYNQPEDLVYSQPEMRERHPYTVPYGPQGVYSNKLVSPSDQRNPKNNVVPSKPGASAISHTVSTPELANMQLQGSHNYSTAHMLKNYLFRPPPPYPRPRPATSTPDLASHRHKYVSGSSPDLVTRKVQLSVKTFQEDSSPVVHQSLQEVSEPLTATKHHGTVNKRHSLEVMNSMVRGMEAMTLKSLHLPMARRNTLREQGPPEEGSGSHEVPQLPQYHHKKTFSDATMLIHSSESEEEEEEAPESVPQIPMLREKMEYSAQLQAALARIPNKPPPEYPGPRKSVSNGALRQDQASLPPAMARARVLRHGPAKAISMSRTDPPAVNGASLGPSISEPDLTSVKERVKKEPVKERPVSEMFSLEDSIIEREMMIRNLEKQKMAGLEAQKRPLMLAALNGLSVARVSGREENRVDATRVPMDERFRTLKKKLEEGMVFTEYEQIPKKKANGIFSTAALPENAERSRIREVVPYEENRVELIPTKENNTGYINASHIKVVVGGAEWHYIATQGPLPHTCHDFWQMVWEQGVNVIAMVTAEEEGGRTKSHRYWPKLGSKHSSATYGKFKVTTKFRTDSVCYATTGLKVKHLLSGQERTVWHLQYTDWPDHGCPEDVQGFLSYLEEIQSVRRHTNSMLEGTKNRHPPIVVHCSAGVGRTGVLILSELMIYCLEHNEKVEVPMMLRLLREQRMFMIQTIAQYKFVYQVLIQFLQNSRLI
quantity.name: inhibition (%)
Give the quantity in %, number only.

Consider the reported inhibition for these compounds:
>>> df
                                     smiles            target  quantity_name  observed_value
0  CCn1nc(-c2ccc(Cl)cc2)nc2c(=O)n(C)c(=O)nc1-2  UniProtKB Q15678     inhibition            30.5
1  CCn1nc(/C=C/c2ccccc2)nc2c(=O)n(C)c(=O)nc1-2  UniProtKB Q15678     inhibition              24
2  OO.OO.[K+].[O]=[V].c1cnc2c(c1)ccc1cccnc12  UniProtKB Q15678     inhibition              49
3  O=C([O-])c1ccccn1.OO.OO.[K+].[K+].[O]=[V]  UniProtKB Q15678     inhibition              73

Identify inhibition associated with the compound O=P(O)(O)OC(CO)CO 27

Identify inhibition associated with the compound CCn1nc(/C=C/c2ccccc2)[n+](=O)c2c(=O)n(C)c(=O)[nH]c21 33

Identify inhibition associated with the compound Cn1c(=O)[nH]c2c(c1=O)[n+](=O)c(/C=C/c1ccccc1)nn2C 28

Identify inhibition associated with the compound Cn1nc(-c2ccccc2)nc2c(=O)n(C)c(=O)nc1-2 39.5

Identify inhibition associated with the compound O=C(O)c1ccc(O)cn1.OO.[O]=[V] 62.5

Identify inhibition associated with the compound OO.OO.[K+].[O]=[V].c1ccc(-c2ccccn2)nc1 72

Identify inhibition associated with the compound [NH-]CO.[NH-]CO.[NH-]CO.[NH-]CO.[O]=[V][O][V]=[O] 28.5

Identify inhibition associated with the compound O=P(O)(O)Oc1cccc2ccccc12 26

====

target: UniProtKB Q15678; test: PTPN14 phosphatase inhibitors, biochemical, human, DiFMUP fluorescence (AID 402); details: recombinant PTPN14, DiFMUP fluorescence phosphatase assay; at 50 µM; stronger effect = higher value
quantity.name: inhibition (%)
Give the quantity in %, number only.

Consider the reported inhibition for these compounds:
In [3]: df
Out[3]:
                                     smiles            target  quantity_name  observed_value
0  O=C(O)c1ccc([O-])cn1.OO.OO.[K+].[K+].[O]=[V]  UniProtKB Q15678     inhibition              70
1                     CN(N=O)c1ccc(O)c(O)c1  UniProtKB Q15678     inhibition              68
2   CCn1nc(-c2ccccc2)nc2c(=O)n(C)c(=O)nc1-2  UniProtKB Q15678     inhibition            25.5
3               c1ccc([C@H]2CN3CCSC3=N2)cc1  UniProtKB Q15678     inhibition              27

Please examine the following record next.
Identify inhibition associated with the compound Cn1nc(/C=C/c2ccccc2)nc2c(=O)n(C)c(=O)nc1-2 37

Reference for the values: PubChem BioAssay AID402
